Test system: L. minor
Assay: Cryopreservation success rate after dormancy induction in sugar-supplemented medium
Format: in vivo, Lemna minor
Details: second set of experiments; single sugars 90 mg/ml unless the label says 20 mg/ml, six sugar combo 15 mg/ml each
Experimental: Lemna minor duckweed plants were cultured on Schenk and Hildebrandt media with 20 mg/ml sucrose at an aerial temperature of between 21° C. and 30° C. and light levels ranging from 200 μM·M^−2·sec^−1 to 450 μM·M^−2·sec^−1 for 1 day up to 1 year. […]
Cryopreservation success rate values by entry

Below: 5 molecules and their reported Cryopreservation success rate.
- smiles.data: "O=C[C@H](O)[C@@H](O)[C@H](O)[C@H](O)CO"
  measurement.target: "L. minor"
  property.name: "Cryopreservation success rate"
  result: "53.9% (7/13)"
- smiles.data: "OC[C@@H](O)[C@@H](O)[C@H](O)[C@@H](O)CO"
  measurement.target: "L. minor"
  property.name: "Cryopreservation success rate"
  result: "0% (0/4)"
- smiles.data: "OC[C@H]1O[C@H](O[C@H]2O[C@H](CO)[C@@H](O)[C@H](O)[C@H]2O)[C@H](O)[C@@H](O)[C@@H]1O"
  measurement.target: "L. minor"
  property.name: "Cryopreservation success rate"
  result: "85.7% (12/14)"
- smiles.data: "OC[C@H]1O[C@H](OC[C@H]2O[C@H](O[C@]3(CO)O[C@H](CO)[C@@H](O)[C@@H]3O)[C@H](O)[C@@H](O)[C@@H]2O)[C@H](O)[C@@H](O)[C@H]1O"
  measurement.target: "L. minor"
  property.name: "Cryopreservation success rate"
  result: "92.9% (13/14)"
- smiles.data: "OC[C@H]1O[C@@](CO)(O[C@H]2O[C@H](CO)[C@@H](O)[C@H](O)[C@H]2O)[C@@H](O)[C@@H]1O"
  measurement.target: "L. minor"
  property.name: "Cryopreservation success rate"
  result: "91.7% (11/12)"

Consider the additional molecule presented here.
Answer with the recorded Cryopreservation success rate for the molecule listed here: OC[C@@H](O)[C@@H](O)[C@H](O)[C@H](O)CO
0% (0/14)
